test: Crossover pharmacokinetics in dogs, oral vs 30-min intravenous infusion, LC-MS/MS; assay type: in vivo, male beagle dogs; conditions: male, beagle, dog, plasma, po, 1 mg/kg; read-out: F (absolute oral bioavailability) of L-lysine-d-amphetamine
EXPERIMENTAL_READOUT: bioavailability (%)

[[record]]
molecule = "CC(Cc1ccccc1)NC(=O)C(N)CCCCN (stereo not shown)"
quantity_unit = "%"
observed_result = 33


====

experiment: Intranasal bioavailability of hydrocodone conjugates in rats, LC/MS/MS; conditions: male, Sprague-Dawley, rat, plasma, other: intranasal, 1 mg/kg
EXPERIMENTAL_READOUT: concentration at 30 min (ng/mL)

[[record]]
molecule = "COc1ccc2c3c1O[C@H]1C(=O)CC[C@H]4[C@@H](C2)N(C)CC[C@]314 [Hydrocodone, reference compound]"
observed_result = 227

